# credit: PubChem BioAssay AID2060883

- Test system: 843782-103-R-J1-PDC complex spheroid viability;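 also: viability read after seven days of compound exposure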
- EXPERIMENT DESCRIPTION: Anticancer human tumor 843782-103-R-J1-PDC patient-derived lung adenocarcinoma cell line growth inhibition [RAS]; active = viability on the fitted dose curve at most 10% of control; inactive = the rest
- RUN CONDITIONS: second compound 0.0949 µM; first compound 0.1 µM
Answer with one of the outcomes True for active, False for inactive

Which outcome was assigned to Cc1nc(N2CCC3(CC2)COC(C)C3N)c(CO)nc1Sc1ccnc(N)c1Cl (stereo not given) + CCn1c(-c2cc(N3CCN(C)CC3)cnc2C(C)OC)c2c3cc(ccc31)-c1csc(n1)CC(NC(=O)C1CC1C)C(=O)N1CCCC(N1)C(=O)OCC(C)(C)C2 in this test?
False

Further cases:
Which outcome was assigned to C=CC(=O)N1CCN(c2nc(OCC3CCCN3C)nc3c(F)c(-c4nc(N)cc(C)c4C(F)(F)F)c(Cl)cc23)C(C)C1 (stereo not given) + CCn1c(-c2cc(N3CCN(C)CC3)cnc2C(C)OC)c2c3cc(ccc31)-c1csc(n1)CC(NC(=O)C1CC1C)C(=O)N1CCCC(N1)C(=O)OCC(C)(C)C2 in this test?
False

Now try Nc1ccn(C2OC(CO)C(O)C2(F)F)c(=O)n1 (stereo not given) + CCn1c(-c2cc(N3CCN(C)CC3)cnc2C(C)OC)c2c3cc(ccc31)-c1csc(n1)CC(NC(=O)C1CC1C)C(=O)N1CCCC(N1)C(=O)OCC(C)(C)C2 .
True

Now try C=CC(=O)N1CCN(c2nc(OCC3CCCN3C)nc3c(F)c(-c4nc(N)cc(C)c4C(F)(F)F)c(Cl)cc23)C(C)C1 (stereo not given) + CCn1c(-c2cccnc2C(C)OC)c2c3cc(ccc31)N1CCOC(CC(NC(=O)C(C(C)C)N(C)C(=O)C3(F)CCN(C(=O)C#CC(C)(C)N(C)C)CC3)C(=O)N3CCCC(N3)C(=O)OCC(C)(C)C2)C1 .
False

Now try CC1(O)CCCC1n1c(=O)c(C(F)F)cc2cnc(NC3CCN(S(C)(=O)=O)CC3)nc21 (stereo not given) + CCn1c(-c2cccnc2C(C)OC)c2c3cc(ccc31)N1CCOC(CC(NC(=O)C(C(C)C)N(C)C(=O)C3(F)CCN(C(=O)C#CC(C)(C)N(C)C)CC3)C(=O)N3CCCC(N3)C(=O)OCC(C)(C)C2)C1 .
False

Now try CC(C)NCC(C(=O)N1CCN(c2ncnc3c2C(C)CC3O)CC1)c1ccc(Cl)cc1 (stereo not given) + CCn1c(-c2cc(N3CCN(C)CC3)cnc2C(C)OC)c2c3cc(ccc31)-c1csc(n1)CC(NC(=O)C1CC1C)C(=O)N1CCCC(N1)C(=O)OCC(C)(C)C2 .
False

Now try CCN1CCN(Cc2ccc(Nc3ncc(F)c(-c4cc(F)c5nc(C)n(C(C)C)c5c4)n3)nc2)CC1 + CCn1c(-c2cccnc2C(C)OC)c2c3cc(ccc31)N1CCOC(CC(NC(=O)C(C(C)C)N(C)C(=O)C3(F)CCN(C(=O)C#CC(C)(C)N(C)C)CC3)C(=O)N3CCCC(N3)C(=O)OCC(C)(C)C2)C1 .
False

Now try CC(=O)OC12COC1CC(O)C1(C)C(=O)C(O)C3=C(C)C(OC(=O)C(O)C(NC(=O)OC(C)(C)C)c4ccccc4)CC(O)(C(OC(=O)c4ccccc4)C21)C3(C)C (stereo not given) + CCn1c(-c2cccnc2C(C)OC)c2c3cc(ccc31)N1CCOC(CC(NC(=O)C(C(C)C)N(C)C(=O)C3(F)CCN(C(=O)C#CC(C)(C)N(C)C)CC3)C(=O)N3CCCC(N3)C(=O)OCC(C)(C)C2)C1 .
True

Now try CC1(O)CCCC1n1c(=O)c(C(F)F)cc2cnc(NC3CCN(S(C)(=O)=O)CC3)nc21 (stereo not given) + CCn1c(-c2cc(N3CCN(C)CC3)cnc2C(C)OC)c2c3cc(ccc31)-c1csc(n1)CC(NC(=O)C1CC1C)C(=O)N1CCCC(N1)C(=O)OCC(C)(C)C2 .
False

Now try NC1c2ccccc2OC12CCN(c1cnc3c(N4CCCc5ncccc54)n[nH]c3n1)CC2 (stereo not given) + CCn1c(-c2cc(N3CCN(C)CC3)cnc2C(C)OC)c2c3cc(ccc31)-c1csc(n1)CC(NC(=O)C1CC1C)C(=O)N1CCCC(N1)C(=O)OCC(C)(C)C2 .
False

Now try Nc1ccn(C2OC(CO)C(O)C2(F)F)c(=O)n1 (stereo not given) + CCn1c(-c2cccnc2C(C)OC)c2c3cc(ccc31)N1CCOC(CC(NC(=O)C(C(C)C)N(C)C(=O)C3(F)CCN(C(=O)C#CC(C)(C)N(C)C)CC3)C(=O)N3CCCC(N3)C(=O)OCC(C)(C)C2)C1 .
True
